- Tested on: Plasmodium falciparum
- experimental protocol: NOVARTIS: Inhibition of Plasmodium falciparum W2 (drug-resistant) proliferation in erythrocyte-based infection assay
- Type: functional, organism-based
- assay setup: Plasmodium falciparum, W2; read-out: EC50
// boundary case: EC50 equal to 0.5 µM maps to F; strictly smaller maps to T

[
  {
    "compound": "CCc1ccc(NC(=O)c2ccc(F)c(S(=O)(=O)N3CCN(C)CC3)c2)cc1",
    "qualitative label": "F"
  },
  {
    "compound": "CC(=O)Oc1ccc(C(=O)C(C(C)=O)c2ccccc2)c(OC(C)=O)c1 (stereo not drawn)",
    "qualitative label": "F"
  },
  {
    "compound": "CCCCc1ccc(C(=O)N(CC(=O)Nc2cc(C(C)(C)C)nn2-c2ccc(Cl)cc2)C(C)C)cc1",
    "qualitative label": "F"
  },
  {
    "compound": "CCc1nc2ccc(NC(=O)c3ccncc3)cc2c(=O)n1Cc1cccc(OC)c1",
    "qualitative label": "T"
  },
  {
    "compound": "CCOc1cccc2oc(=O)c(C(=O)Nc3cc(C(C)(C)C)on3)cc12",
    "qualitative label": "F"
  },
  {
    "compound": "CCCCCCN(C(=O)c1ccccc1)C(CC)c1nc2ccccc2c(=O)n1-c1ccccc1OC (stereo not drawn)",
    "qualitative label": "F"
  },
  {
    "compound": "CC(=O)c1c(C)n(CC(=O)Nc2cccc(C)c2)c2ccccc12",
    "qualitative label": "T"
  },
  {
    "compound": "O=C(c1ccc2c(c1)OCO2)N1CCOC(c2ccc(Cl)cc2)C1 (stereo not drawn)",
    "qualitative label": "F"
  },
  {
    "compound": "CCCCCCCCN[C@@H](C)[C@@H](O)c1ccc(SC(C)C)cc1",
    "qualitative label": "T"
  },
  {
    "compound": "COc1ccc(CCNC(=O)Cn2c(C)cc3ccccc3c2=O)cc1OC",
    "qualitative label": "F"
  },
  {
    "compound": "c1cc2cc(CN3CCc4nc(N5CCCCC5)sc4C3)ccc2[nH]1",
    "qualitative label": "T"
  },
  {
    "compound": "CO[C@H]1[C@@H](C)[C@@H]([C@H](C)C2O[C@@]3(CC[C@@](C)([C@H]4CC[C@@](C)([C@@H]5O[C@@H]([C@H]6O[C@](C)(O)[C@H](C)C[C@@H]6C)C[C@@H]5C)O4)O3)C[C@H](O)[C@@H]2C)O[C@@](O)([C@H](C)C(=O)O)[C@H]1C (stereo partly drawn)",
    "qualitative label": "F"
  },
  {
    "compound": "COc1cc(OC)cc(-n2nc(C(=O)NCCCN3CC(C)CC(C)C3)c3ccccc3c2=O)c1 (stereo not drawn)",
    "qualitative label": "F"
  },
  {
    "compound": "CN(C)CCN1CCN(c2cncc(-c3cccnc3)n2)CC1",
    "qualitative label": "F"
  },
  {
    "compound": "CC(=O)OCN1C(=O)N(COC(C)=O)C2C1N(COC(C)=O)C(=O)N2COC(C)=O (stereo not drawn)",
    "qualitative label": "F"
  },
  {
    "compound": "CCN1CCN(C(=O)Nc2ccc(Cc3ccc(NC(=O)N4CCN(CC)CC4)cc3)cc2)CC1",
    "qualitative label": "F"
  },
  {
    "compound": "CSc1cccc(NC(=O)C2C3C=CC4(O3)C2C(=O)N(CCN2CCCCC2)C4C(=O)NC2CCCC(C)C2C)c1 (stereo not drawn)",
    "qualitative label": "F"
  },
  {
    "compound": "CC(C)CCNCC(O)Cn1c2ccc(Cl)cc2c2cc(Cl)ccc21 (stereo not drawn)",
    "qualitative label": "T"
  },
  {
    "compound": "O=S(=O)(c1ccccc1)N1CCN(CC2CNCCO2)CC1 (stereo not drawn)",
    "qualitative label": "T"
  },
  {
    "compound": "O=C(Nc1ccc(N2CCCCC2)cc1)N1CCc2nc[nH]c2C1c1ccc(Cl)cc1 (stereo not drawn)",
    "qualitative label": "T"
  },
  {
    "compound": "CC(NS(=O)(=O)c1ccccc1)C(c1cccs1)N1CCN(c2ccccc2F)CC1 (stereo not drawn)",
    "qualitative label": "F"
  },
  {
    "compound": "CCOC(=O)c1ccc(N2C(=O)c3[nH]nc(C)c3C2c2ccccc2OC)cc1 (stereo not drawn)",
    "qualitative label": "F"
  }
]
